measurement-target: Neprilysin (Oryctolagus cuniculus)
Sequence (P08049 whole entry): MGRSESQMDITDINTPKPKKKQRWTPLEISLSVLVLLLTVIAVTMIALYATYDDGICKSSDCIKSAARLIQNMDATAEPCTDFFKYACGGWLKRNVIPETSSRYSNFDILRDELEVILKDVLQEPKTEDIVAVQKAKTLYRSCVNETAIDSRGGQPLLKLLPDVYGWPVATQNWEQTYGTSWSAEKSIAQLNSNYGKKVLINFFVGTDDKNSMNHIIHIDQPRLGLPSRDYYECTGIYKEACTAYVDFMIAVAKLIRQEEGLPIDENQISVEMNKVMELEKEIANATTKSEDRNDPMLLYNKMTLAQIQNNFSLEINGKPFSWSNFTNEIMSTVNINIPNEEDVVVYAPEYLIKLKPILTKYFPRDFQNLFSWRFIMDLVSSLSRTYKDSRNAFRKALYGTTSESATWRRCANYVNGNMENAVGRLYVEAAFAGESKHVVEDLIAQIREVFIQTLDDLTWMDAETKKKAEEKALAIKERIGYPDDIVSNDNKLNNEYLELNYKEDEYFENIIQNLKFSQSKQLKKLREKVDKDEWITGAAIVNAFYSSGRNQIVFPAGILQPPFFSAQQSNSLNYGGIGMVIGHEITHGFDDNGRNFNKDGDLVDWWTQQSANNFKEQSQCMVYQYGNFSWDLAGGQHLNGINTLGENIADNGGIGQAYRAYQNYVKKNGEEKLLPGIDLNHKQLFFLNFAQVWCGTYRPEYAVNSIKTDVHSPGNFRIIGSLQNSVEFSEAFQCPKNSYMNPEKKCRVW
protocol-details: Inhibition of enkephalinase activity in membranes prepared from rabbit
attribute-measured: IC50 (nM)

[a] O=C(O)CCCNC(=O)[C@H](Cc1ccccc1)C[C@@H](Cc1ccccc1)C(=O)O
[b] COc1cc(CNC(=O)C(CS)Cc2ccccc2)ccc1O (configuration not stated)
Ask: For the pair a and b , which entry has the numerically smaller recorded IC50? Lab log: write the label of the selected item as the result.
Reply: a

###

measurement-target: Neprilysin (Rattus norvegicus, UniProt P07861)
Sequence (P07861 whole entry): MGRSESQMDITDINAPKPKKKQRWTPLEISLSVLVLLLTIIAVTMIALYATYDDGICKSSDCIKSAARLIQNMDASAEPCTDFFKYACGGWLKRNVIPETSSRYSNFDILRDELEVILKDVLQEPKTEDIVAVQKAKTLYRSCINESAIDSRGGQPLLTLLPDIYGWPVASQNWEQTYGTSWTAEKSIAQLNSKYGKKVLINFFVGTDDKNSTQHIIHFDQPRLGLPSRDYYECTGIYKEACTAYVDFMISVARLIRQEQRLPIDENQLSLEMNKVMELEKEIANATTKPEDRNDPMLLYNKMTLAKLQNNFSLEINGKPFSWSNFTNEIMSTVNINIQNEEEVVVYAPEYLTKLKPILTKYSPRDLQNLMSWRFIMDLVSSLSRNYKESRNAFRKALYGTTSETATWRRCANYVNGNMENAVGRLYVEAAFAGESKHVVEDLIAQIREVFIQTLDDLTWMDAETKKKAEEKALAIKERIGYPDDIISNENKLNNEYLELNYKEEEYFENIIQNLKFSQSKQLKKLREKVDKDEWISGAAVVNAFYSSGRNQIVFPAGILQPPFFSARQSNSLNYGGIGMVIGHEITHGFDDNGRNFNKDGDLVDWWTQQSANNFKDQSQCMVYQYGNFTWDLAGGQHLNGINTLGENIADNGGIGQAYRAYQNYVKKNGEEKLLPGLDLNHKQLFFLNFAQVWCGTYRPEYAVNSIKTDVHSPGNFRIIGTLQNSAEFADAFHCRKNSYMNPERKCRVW
protocol-details: Inhibition of enkephalinase activity in synaptic membranes prepared from rat striatum
attribute-measured: IC50 (nM)

Observe how each entry below is paired with its result.
O=C(O)C(CCc1ccccc1)NC(=O)[C@H](Cc1ccccc1)C[C@@H](Cc1ccccc1)C(=O)O (some centres undefined)	5
O=C(NCc1ccc(O)c(O)c1)C(CS)Cc1ccccc1 (centres undefined)	12

[1] O=C(O)C(Cc1c[nH]c2ccccc12)NC(=O)[C@H](Cc1ccccc1)C[C@@H](Cc1ccccc1)C(=O)O (some centres undefined)
[2] O=C(O)CCNC(=O)C(CC1CCCCC1)CC(CC1CCCCC1)C(=O)O (centres undefined)
Ask: For the pair 1 and 2 , which entry has the numerically smaller recorded IC50? Lab log: write the label of the selected item as the result.
Reply: 1

[I] O=C(O)CCNC(=O)[C@H](Cc1ccccc1)C[C@@H](Cc1ccccc1)C(=O)O
[II] O=C(O)C(Cc1ccccc1)CC(Cc1ccccc1)C(=O)NCCCO (centres undefined)
[III] O=C([O-])[C@H](Cc1ccccc1)C[C@@H](Cc1ccccc1)C(=O)NCc1ccc(O)c(O)c1.[Na+]
[IV] O=C(O)c1cccc(NC(=O)[C@@H](Cc2ccccc2)C[C@H](Cc2ccccc2)C(=O)O)c1
Ask: Output the entries ranked by IC50 from maximum down to minimum. Put the labels in the requested order and list them out.
Reply: II, IV, III, I
(II: 1000 nM, IV: 90 nM, III: 20 nM, I: 8 nM)

[P] O=C(O)CCNC(=O)C(CCc1ccccc1)CC(CCc1ccccc1)C(=O)O (centres undefined)
[Q] O=C(O)C(Cc1ccccc1)NC(=O)[C@H](Cc1ccccc1)C[C@@H](Cc1ccccc1)C(=O)O (some centres undefined)
[R] O=C(O)CCNC(=O)C(Cc1ccccc1)CC(Cc1ccccc1)C(=O)O (centres undefined)
[S] O=C(O)CNC(=O)[C@H](Cc1ccccc1)C[C@@H](Cc1ccccc1)C(=O)O
Ask: Could you please order the items by IC50, going from the lowest number to the highest? Put the labels in the requested order and list them out.
Reply: S, R, Q, P

[A] O=C(O)c1ccc(NC(=O)[C@@H](Cc2ccccc2)C[C@H](Cc2ccccc2)C(=O)O)cc1
[B] O=C(O)Cc1ccccc1NC(=O)[C@H](Cc1ccccc1)C[C@@H](Cc1ccccc1)C(=O)O
[C] CC(C)CC(NC(=O)[C@H](Cc1ccccc1)C[C@@H](Cc1ccccc1)C(=O)O)C(=O)O (some centres undefined)
Ask: Output the entries ranked by IC50 from maximum down to minimum. Put the labels in the requested order and list them out.
Reply: A, C, B

Origin of the recorded values: ChEMBL document CHEMBL1124374
